Source of measurements: a collection of fitness landscapes (doi:10.1016/j.celrep.2020.107928)

Give one-hybrid fitness for binding parS DNA for every item shown.
B1: Caulobacter ParB omega fusion; a variant is named by its letters at X, in order, B8GW30 (parent)
chain: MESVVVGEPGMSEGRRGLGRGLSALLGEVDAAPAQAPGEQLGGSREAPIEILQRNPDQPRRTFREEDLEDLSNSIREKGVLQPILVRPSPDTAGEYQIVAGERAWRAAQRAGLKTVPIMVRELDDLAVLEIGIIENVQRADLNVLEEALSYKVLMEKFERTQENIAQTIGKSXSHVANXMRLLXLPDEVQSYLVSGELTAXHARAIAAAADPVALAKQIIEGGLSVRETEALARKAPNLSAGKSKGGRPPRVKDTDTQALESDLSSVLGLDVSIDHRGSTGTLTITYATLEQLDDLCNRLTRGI

variants of: B1; test: one-hybrid fitness for binding parS DNA (scaled: cognate 1, non-cognate 0); higher = stronger binding; details: with parS DNA site
The full ranking holds about 81,000 sequences; the median of “one-hybrid fitness for binding parS DNA” is about -0.17, and the highest 2% start at about 0.51. Only a selection was taken, and the highest values are over-represented in it overall.

Sure, the documented one-hybrid fitness for binding parS DNA for "KVHG" is ≤ 0.2

Kindly note the recorded one-hybrid fitness for binding parS DNA for "RRHL" , which is ≤ 0.2

Note to self: one-hybrid fitness for binding parS DNA recorded for "RTHN" was 0.45

Short answer for "TKMR" : one-hybrid fitness for binding parS DNA was ≤ 0.2
